Cited source for all entries: patent US9862679B2

- measured-on: norepinephrine transporter (NET) (Rattus norvegicus, UniProt Q63380)
- Sequence (Q63380 1-617): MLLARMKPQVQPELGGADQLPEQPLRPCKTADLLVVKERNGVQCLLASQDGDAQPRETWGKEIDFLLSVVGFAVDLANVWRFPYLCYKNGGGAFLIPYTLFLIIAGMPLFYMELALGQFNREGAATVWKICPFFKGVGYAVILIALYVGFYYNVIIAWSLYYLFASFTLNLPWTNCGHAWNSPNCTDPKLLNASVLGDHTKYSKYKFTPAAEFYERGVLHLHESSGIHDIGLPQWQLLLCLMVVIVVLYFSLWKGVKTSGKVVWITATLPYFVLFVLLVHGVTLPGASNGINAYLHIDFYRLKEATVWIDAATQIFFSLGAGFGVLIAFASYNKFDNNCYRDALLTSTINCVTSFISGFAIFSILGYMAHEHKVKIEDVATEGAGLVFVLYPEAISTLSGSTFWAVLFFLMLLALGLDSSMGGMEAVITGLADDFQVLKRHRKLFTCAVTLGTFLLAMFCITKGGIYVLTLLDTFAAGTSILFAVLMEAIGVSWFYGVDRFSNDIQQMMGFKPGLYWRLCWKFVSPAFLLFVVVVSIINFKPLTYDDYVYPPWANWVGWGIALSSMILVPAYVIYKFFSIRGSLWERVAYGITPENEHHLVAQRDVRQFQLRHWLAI
- measurement-setup: read-out: NET Ki; rat brain membranes; Table 5, bound in M
pKi: −log10 of the molar value.
Measured pKi by item

CC(O)CN1CCN(CC[S+]([O-])C(c2ccccc2)c2ccccc2)CC1 (racemic) [Compound 10a]	< 4.00

Continue with the molecule presented below.
q: Endpoint output: pKi of CC(O)CN1CCN(CC[S+]([O-])C(c2ccc(F)cc2)c2ccc(F)cc2)CC1 (racemic) [Compound 10d] . Value?
a: < 4.00

----------
Measured pKi by item
- measured-on: serotonin transporter (SERT) (Rattus norvegicus (Rat), UniProt P31652)
- Sequence (P31652 whole entry): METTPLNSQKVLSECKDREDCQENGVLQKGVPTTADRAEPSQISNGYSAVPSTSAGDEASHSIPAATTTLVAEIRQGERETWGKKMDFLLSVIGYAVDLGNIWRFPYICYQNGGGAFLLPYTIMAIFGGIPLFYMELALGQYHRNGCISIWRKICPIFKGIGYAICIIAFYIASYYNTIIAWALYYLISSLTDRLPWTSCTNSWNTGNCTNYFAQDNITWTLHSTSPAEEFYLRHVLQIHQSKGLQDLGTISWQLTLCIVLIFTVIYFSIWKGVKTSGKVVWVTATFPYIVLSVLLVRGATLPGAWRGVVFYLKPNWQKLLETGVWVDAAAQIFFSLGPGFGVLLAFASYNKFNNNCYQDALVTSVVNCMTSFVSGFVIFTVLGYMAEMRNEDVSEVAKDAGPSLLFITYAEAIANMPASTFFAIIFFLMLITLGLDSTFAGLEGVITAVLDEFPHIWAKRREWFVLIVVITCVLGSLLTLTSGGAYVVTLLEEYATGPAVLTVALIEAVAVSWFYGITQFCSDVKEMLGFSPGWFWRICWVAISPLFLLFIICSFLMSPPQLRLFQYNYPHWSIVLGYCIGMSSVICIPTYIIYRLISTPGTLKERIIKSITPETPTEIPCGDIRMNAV
- assay-method-text: biochemical
pKi: −log10 of the molar value.

Here is how some molecules turned out for pKi.
O=C(CSC(c1ccc(Br)cc1)c1ccc(Br)cc1)NCC1CC1	5.14
NC(=O)C[S+]([O-])C(c1ccccc1)c1cccc(Br)c1 (stereo not drawn)	< 4.00
O=C(CSC(c1ccccc1)c1ccccc1)NCC1CC1	4.68
NCCSC(c1ccc(Cl)cc1)c1ccc(Cl)cc1	> 7.52
O=C(CSC(c1ccc(F)cc1)c1ccc(F)cc1)NCC1CC1	4.45
NC(=O)C[S+]([O-])C(c1cccc(F)c1)c1cccc(F)c1 (stereo not drawn)	< 4.00
NC(=O)C[S+]([O-])C(c1cccc(Cl)c1)c1cccc(Cl)c1 (stereo not drawn)	< 4.00
Cc1ccc(C(c2ccc(C)cc2)[S+]([O-])CC(N)=O)cc1 (stereo not drawn) [Compound 3a, 2-((Di-p-tolylmethyl)sulfinyl)acetamide]	< 4.00

Continue with the molecule presented below.
q: Endpoint output: pKi of "NCCSC(c1ccc(Br)cc1)c1ccc(Br)cc1" . Value?
a: > 7.52
